- target_desc: ADAMTS5 (Homo sapiens, UniProt Q9UNA0)
- Sequence (Q9UNA0 262-930, species assumed): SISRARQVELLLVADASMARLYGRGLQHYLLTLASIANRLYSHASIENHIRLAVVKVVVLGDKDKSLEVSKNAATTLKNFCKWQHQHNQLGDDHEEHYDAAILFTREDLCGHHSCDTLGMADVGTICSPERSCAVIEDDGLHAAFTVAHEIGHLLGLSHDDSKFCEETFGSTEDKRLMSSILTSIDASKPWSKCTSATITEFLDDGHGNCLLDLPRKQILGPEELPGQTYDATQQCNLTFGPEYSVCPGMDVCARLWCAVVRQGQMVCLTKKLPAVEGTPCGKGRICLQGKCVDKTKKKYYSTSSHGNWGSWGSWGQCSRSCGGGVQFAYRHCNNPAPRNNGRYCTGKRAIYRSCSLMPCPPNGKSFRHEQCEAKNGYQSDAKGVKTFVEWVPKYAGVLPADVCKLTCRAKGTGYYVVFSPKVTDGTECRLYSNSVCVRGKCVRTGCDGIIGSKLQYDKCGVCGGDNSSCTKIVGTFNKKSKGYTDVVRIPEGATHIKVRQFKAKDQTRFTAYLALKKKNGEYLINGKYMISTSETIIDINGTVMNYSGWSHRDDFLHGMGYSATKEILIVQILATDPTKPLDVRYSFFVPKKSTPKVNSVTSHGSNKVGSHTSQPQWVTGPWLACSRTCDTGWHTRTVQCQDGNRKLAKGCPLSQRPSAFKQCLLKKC
experimental_readout: pIC50
pIC50 here: minus log base 10 of the concentration, concentration in moles per litre.

Which pIC50 is listed for C[C@H]1CN(C(=O)CC[C@@]2(C3CC3)NC(=O)NC2=O)CCN1c1cc(F)cc(F)c1 ?
7.19

Cited source: patent US20250313558A1
